biological target: Muscarinic acetylcholine receptor M1/M2/M3/M4/M5; assay: Binding affinity towards muscarinic receptor using [3H]quinuclidinyl benzilate (QNB) to label antagonist sites in membrane preparations from rat neocortex
quantity kind: pIC50
One number for each entry, as −log10 of the molar value.

*Q* Give the measured pIC50 of O=[N+]([O-])c1cccc(C#CCO[N-][C+]2CN3CCC2C3)c1 (stereo unspecified) .
*A* 5.19
